Provenance of the data: patent US20240318150A1

Test system: T3G1
Experiment: Substrate conversion (oxyfunctionalization) by purified enzyme T3G1 with H2O2
Format: biochemical, Proteobacteria bacterium
Conditions: 1 mM substrate, 2 mM H2O2 (1 mM at start, to 2 mM after 90 min), 7 μM enzyme T3G1 (5 + 2 μM)
Text: This prompted us to test the representative enzyme T3G1 against a large panel of various substrates.
I'd be grateful if you could share measured % conversion for these entries.
Enter your answer as a number in %; do not include the unit.

The compound CC1=CCCC(C)(C)C1/C=C/C(C)O (stereo not drawn) showed % conversion equal to 61

The compound `CCCCCCCC/C=C\CCCCCCCC(=O)O` showed % conversion equal to 19

The compound CC(=O)CCC1C(C)=CCCC1(C)C (stereo not drawn) [7,8-dihydro-α-ionone] showed % conversion equal to 50

The compound CC/C=C/CCCC [trans-3-octene] showed % conversion equal to 99

The compound C=CCCCCCC [Substrate 1-octene, 1-octene] showed % conversion equal to 65

The compound `CC=Cc1ccccc1` showed % conversion equal to 86

The compound C=CCCCCCCCC [Substrate 1-decene, 1-decene] showed % conversion equal to 13

The compound C/C=C/CCCCC [trans-2-octene] showed % conversion equal to 99

The compound `CSc1ccccc1` showed % conversion equal to 40

The compound C/C=C\C(=O)C1C(C)=CCCC1(C)C (stereo not drawn) showed % conversion equal to 26

The compound C=C(C)C1CC=C(C)CC1 (single isomer, unassigned; (+)) [(+)-limonene] showed % conversion equal to 81

The compound C1=C\CCCCCC/1 [cis-cyclooctene] showed % conversion equal to 83

The compound `C=Cc1ccccc1` showed % conversion equal to 61

The compound `C=CCCCCCCC=C` showed % conversion equal to 15

The compound `C1=Cc2ccccc2C1` showed % conversion equal to 27

The compound `C=C(C)[C@@H]1CCC2=CCC[C@@H](C)[C@]2(C)C1` showed % conversion equal to 3

The compound C/C=C/C(=O)C1C(C)C=CCC1(C)C (stereo not drawn) showed % conversion equal to 16

The compound CC(=O)/C=C/C1C(C)=CCCC1(C)C (stereo not drawn) showed % conversion equal to 61

====

Test system: T3G1
Assay: Substrate conversion (oxyfunctionalization) by purified enzyme T3G1 with H2O2
Type: biochemical, Proteobacteria bacterium
Details: 1 mM substrate, 2 mM H2O2 (1 mM at start, to 2 mM after 90 min), 7 μM enzyme T3G1 (5 + 2 μM)
Excerpt: This prompted us to test the representative enzyme T3G1 against a large panel of various substrates.
PARAMETER_MEASURED: % conversion

Some solved entries appear below for comparison.
The compound `C=CC(=C)C` showed % conversion equal to trace

The compound C=CCCCC [Substrate 1-hexene, 1-hexene] showed % conversion equal to trace

The compound C/C=C\CCC [cis-2-hexene] showed % conversion equal to trace

The compound C/C=C/CCC [trans-2-hexene] showed % conversion equal to trace

The compound `C=C(C)CC` showed % conversion equal to trace

Continuing:
The compound C=CCCCCC [Substrate 1-heptene, 1-heptene] showed % conversion equal to trace

====

system: T3G1; test: Substrate conversion (oxyfunctionalization) by purified enzyme T3G1 with H2O2; format: biochemical, Proteobacteria bacterium; details: 1 mM substrate, 2 mM H2O2 (1 mM at start, to 2 mM after 90 min), 7 μM enzyme T3G1 (5 + 2 μM)
PARAMETER_MEASURED: % conversion

The molecule C[C@]12CCC(=O)C=C1CCC2=O [(S)-Hajos-Wiechert ketone] showed % conversion equal to trace

The molecule `CCc1ccccc1` showed % conversion equal to trace

The molecule `COc1cc(C)ccc1O` showed % conversion equal to trace
